What Retention time was measured for each of the following?
- test: Retention time of the compound using 0.1% TFA in water and 0.1% TFA in acetonitrile-water (80:20 v/v) as eluents by RP-HPLC analysis
- Format: physicochemical
Where a SMILES comes first, the peptide text is derived from it. The star is where a group is joined. X1 = COc1cccc2c1C(=O)c1c(O)c3c(c(O)c1C2=O)C[C@@](O)(/C(C)=N/OCC(=O)*)C[C@@H]3O[C@H]1C[C@H](N)[C@H](O)[C@H](C)O1

INPUT: What does the data say about its Retention time? Entry: COc1cccc2c1C(=O)c1c(O)c3c(c(O)c1C2=O)C[C@@](O)(/C(C)=N/OCC(=O)N[C@@H](CC(C)C)C(=O)N[C@@H](CCCNC(=N)N)C(=O)N[C@@H](CCCNC(=N)N)C(=O)N[C@@H](Cc1ccc(O)cc1)C(=O)N[C@H](C(=O)N[C@@H](Cc1cnc[nH]1)C(=O)N[C@@H](CC(C)C)C(=O)N[C@@H](CCCCN)C(=O)N[C@@H](Cc1ccc(O)cc1)C(=O)N[C@@H](C)C(=O)N[C@H](C(N)=O)[C@@H](C)O)C(C)C)C[C@@H]3O[C@H]1C[C@H](N)[C@H](O)[C@H](C)O1 (X1-LRRYVHLKYAT-NH2)
OUTPUT: 28.2 to 30.1 min

INPUT: What does the data say about its Retention time? Entry: COc1cccc2c1C(=O)c1c(O)c3c(c(O)c1C2=O)C[C@@](O)(/C(C)=N/OCC(=O)N[C@@H](CC(C)C)C(=O)N[C@@H](CCCNC(=N)N)C(=O)N[C@@H](CCCNC(=N)N)C(=O)N[C@@H](Cc1ccc(O)cc1)C(=O)N[C@H](C(=O)N[C@@H](Cc1cnc[nH]1)C(=O)N[C@@H](CC(C)C)C(=O)N[C@@H](Cc1ccccc1)C(=O)N[C@@H](Cc1ccc(O)cc1)C(=O)N[C@@H](C)C(=O)N[C@H](C(N)=O)[C@@H](C)O)C(C)C)C[C@@H]3O[C@H]1C[C@H](N)[C@H](O)[C@H](C)O1 (X1-LRRYVHLFYAT-NH2)
OUTPUT: 31.2 to 33.2 min

INPUT: What does the data say about its Retention time? Entry: COc1cccc2c1C(=O)c1c(O)c3c(c(O)c1C2=O)C[C@@](O)(/C(C)=N/OCC(=O)N[C@@H](CC(C)C)C(=O)N[C@@H](CCCNC(=N)N)C(=O)N[C@@H](CCCNC(=N)N)C(=O)N[C@@H](Cc1ccc(O)cc1)C(=O)N[C@H](C(=O)N[C@@H](Cc1cnc[nH]1)C(=O)N[C@@H](CC(C)C)C(=O)N[C@@H](C)C(=O)N[C@@H](Cc1ccc(O)cc1)C(=O)N[C@@H](C)C(=O)N[C@H](C(N)=O)[C@@H](C)O)C(C)C)C[C@@H]3O[C@H]1C[C@H](N)[C@H](O)[C@H](C)O1 (X1-LRRYVHLAYAT-NH2)
OUTPUT: 28.6 to 31.3 min

INPUT: What does the data say about its Retention time? Entry: COc1cccc2c1C(=O)c1c(O)c3c(c(O)c1C2=O)C[C@@](O)(/C(C)=N/OCC(=O)N[C@@H](CC(C)C)C(=O)N[C@@H](CCCNC(=N)N)C(=O)N[C@@H](CCCNC(=N)N)C(=O)N[C@@H](Cc1ccc(O)cc1)C(=O)N[C@H](C(=O)N[C@@H](Cc1cnc[nH]1)C(=O)N[C@@H](CC(C)C)C(=O)N[C@@H](Cc1ccc(O)cc1)C(=O)N[C@@H](Cc1ccc(O)cc1)C(=O)N[C@@H](C)C(=O)N[C@H](C(N)=O)[C@@H](C)O)C(C)C)C[C@@H]3O[C@H]1C[C@H](N)[C@H](O)[C@H](C)O1 (X1-LRRYVHLYYAT-NH2)
OUTPUT: 30.8 to 31.7 min

====

What Retention time was measured for each of the following?
- test: Retention time of the compound using 0.1% TFA in water and 0.1% TFA in acetonitrile-water (80:20 v/v) as eluents by RP-HPLC analysis
- Format: physicochemical
Where a SMILES comes first, the peptide text is derived from it. The star is where a group is joined. X1 = COc1cccc2c1C(=O)c1c(O)c3c(c(O)c1C2=O)C[C@@](O)(/C(C)=N/OCC(=O)*)C[C@@H]3O[C@H]1C[C@H](N)[C@H](O)[C@H](C)O1

INPUT: What does the data say about its Retention time? Entry: COc1cccc2c1C(=O)c1c(O)c3c(c(O)c1C2=O)C[C@@](O)(/C(C)=N/OCC(=O)N[C@@H](CC(C)C)C(=O)N[C@@H](CCCNC(=N)N)C(=O)N[C@@H](CCCNC(=N)N)C(=O)N[C@@H](Cc1ccc(O)cc1)C(=O)N[C@H](C(=O)N[C@@H](Cc1cnc[nH]1)C(=O)N[C@@H](CC(C)C)C(=O)N[C@@H](Cc1ccccc1)C(=O)N[C@@H](Cc1ccc(O)cc1)C(=O)N[C@@H](CO)C(=O)N[C@H](C(N)=O)[C@@H](C)O)C(C)C)C[C@@H]3O[C@H]1C[C@H](N)[C@H](O)[C@H](C)O1 (X1-LRRYVHLFYST-NH2)
OUTPUT: 32.1 to 32.9 min

INPUT: What does the data say about its Retention time? Entry: COc1cccc2c1C(=O)c1c(O)c3c(c(O)c1C2=O)C[C@@](O)(/C(C)=N/OCC(=O)N[C@@H](CC(C)C)C(=O)N[C@@H](CCCNC(=N)N)C(=O)N[C@@H](CCCNC(=N)N)C(=O)N[C@@H](Cc1ccc(O)cc1)C(=O)N[C@H](C(=O)N[C@@H](Cc1cnc[nH]1)C(=O)N[C@@H](CC(C)C)C(=O)N[C@@H](CC(N)=O)C(=O)N[C@@H](Cc1ccc(O)cc1)C(=O)N[C@@H](C)C(=O)N[C@H](C(N)=O)[C@@H](C)O)C(C)C)C[C@@H]3O[C@H]1C[C@H](N)[C@H](O)[C@H](C)O1 (X1-LRRYVHLNYAT-NH2)
OUTPUT: 29 to 30.8 min

====

- test: Retention time of the compound using 0.1% TFA in water and 0.1% TFA in acetonitrile-water (80:20 v/v) as eluents by RP-HPLC analysis
- Assay type: physicochemical
Where a SMILES comes first, the peptide text is derived from it. The star is where a group is joined. X1 = COc1cccc2c1C(=O)c1c(O)c3c(c(O)c1C2=O)C[C@@](O)(/C(C)=N/OCC(=O)*)C[C@@H]3O[C@H]1C[C@H](N)[C@H](O)[C@H](C)O1
What Retention_time was measured for each of the following?
Record the result as a number with its unit.

INPUT: What does the data say about its Retention_time? Entry: COc1cccc2c1C(=O)c1c(O)c3c(c(O)c1C2=O)C[C@@](O)(/C(C)=N/OCC(=O)N[C@@H](CC(C)C)C(=O)N[C@@H](CCCNC(=N)N)C(=O)N[C@@H](CCCNC(=N)N)C(=O)N[C@@H](Cc1ccc(O)cc1)C(=O)N[C@H](C(=O)N[C@@H](Cc1cnc[nH]1)C(=O)N[C@@H](CC(C)C)C(=O)N[C@@H](Cc1ccccc1)C(=O)N[C@@H](Cc1ccc(O)cc1)C(=O)N[C@@H](CC(N)=O)C(=O)N[C@H](C(N)=O)[C@@H](C)O)C(C)C)C[C@@H]3O[C@H]1C[C@H](N)[C@H](O)[C@H](C)O1 (X1-LRRYVHLFYNT-NH2)
OUTPUT: 31.8 min

INPUT: What does the data say about its Retention_time? Entry: COc1cccc2c1C(=O)c1c(O)c3c(c(O)c1C2=O)C[C@@](O)(/C(C)=N/OCC(=O)N[C@H](C(=O)N[C@@H](Cc1cnc[nH]1)C(=O)N[C@@H](CC(C)C)C(=O)NCC(=O)N[C@@H](Cc1ccc(O)cc1)C(=O)N[C@@H](C)C(=O)N[C@H](C(N)=O)[C@@H](C)O)C(C)C)C[C@@H]3O[C@H]1C[C@H](N)[C@H](O)[C@H](C)O1 (X1-VHLGYAT-NH2)
OUTPUT: 26.1 min

INPUT: What does the data say about its Retention_time? Entry: COc1cccc2c1C(=O)c1c(O)c3c(c(O)c1C2=O)C[C@@](O)(/C(C)=N/OCC(=O)N[C@@H](CC(C)C)C(=O)N[C@@H](CCCNC(=N)N)C(=O)N[C@@H](CCCNC(=N)N)C(=O)N[C@@H](Cc1ccc(O)cc1)C(=O)N[C@H](C(=O)N[C@@H](Cc1cnc[nH]1)C(=O)N[C@@H](CC(C)C)C(=O)N[C@@H](CO)C(=O)N[C@@H](Cc1ccc(O)cc1)C(=O)N[C@@H](C)C(=O)N[C@H](C(N)=O)[C@@H](C)O)C(C)C)C[C@@H]3O[C@H]1C[C@H](N)[C@H](O)[C@H](C)O1 (X1-LRRYVHLSYAT-NH2)
OUTPUT: 28.9 min

INPUT: What does the data say about its Retention_time? Entry: COc1cccc2c1C(=O)c1c(O)c3c(c(O)c1C2=O)C[C@@](O)(/C(C)=N/OCC(=O)N[C@@H](CC(C)C)C(=O)N[C@@H](CCCNC(=N)N)C(=O)N[C@@H](CCCNC(=N)N)C(=O)N[C@@H](Cc1ccc(O)cc1)C(=O)N[C@H](C(=O)N[C@@H](Cc1cnc[nH]1)C(=O)N[C@@H](CC(C)C)C(=O)N[C@H](C(=O)N[C@@H](Cc1ccc(O)cc1)C(=O)N[C@@H](C)C(=O)N[C@H](C(N)=O)[C@@H](C)O)[C@@H](C)O)C(C)C)C[C@@H]3O[C@H]1C[C@H](N)[C@H](O)[C@H](C)O1 (X1-LRRYVHLTYAT-NH2)
OUTPUT: 29 min
